# testMethodNotes: Microelectrophoresis: zeta-potential of coated organic microcrystals
# Type: physicochemical
# conditionDetails: crystals, layer No. 1, coating SDS detergent; pure water pH ~5.6
# Experimental: The layer-by-layer assembly of polyelectrolytes onto FDA or PYR microcrystals was carried out as follows: 50 mg of finely milled core particles (FDA or PYR) were first thoroughly mixed with 12 mL of 0.2–0.4 wt % of the dispersing agent (ionic surfactant, lipid or charged polymer). […] The microelectrophoretic mobility of coated organic microcrystals was measured with a malvern Zetasizer 4 by taking the average of 5 measurements at the stationary level. […]

>  <molecule>
c1cc2ccc3cccc4ccc(c1)c2c34 [Pyrene]

>  <Zeta-potential [mV]>
−68.5

$$$$
>  <molecule>
CC(=O)Oc1ccc2c(c1)Oc1cc(OC(C)=O)ccc1C21OC(=O)c2ccccc21 [Fluorescein diacetate, fluorescein diacetate]

>  <Zeta-potential [mV]>
-85

$$$$
